GI50 by entry:
tested on: MDA-MB-231; experiment: NCI tumour cell line growth inhibition, 48 h
The source made the active and inactive calls. Rule as the data show it: active = GI50 up to about 1.1 µM and inactive = higher.

INSERT INTO results (compound, data_value) VALUES
  ('Cn1c(=O)c2nc3nnc(C#N)c(N)n3c2n(C)c1=O', '> 100 µM (inactive)');

Entry CC(=O)OC1CCC2(C)C(CCC3C2CC(=O)C2(C)C3CC(N3CC3)C2C(C)=O)C1 (centres undefined) has what GI50?
16.7 µM (inactive)

Entry CCNc1nnc(-c2ccccc2Nc2ccccc2-c2nnc(NCC)s2)s1 has what GI50?
8.02 µM (inactive)

Entry COc1cccc(/C=C2\S/C(=N/Nc3nc(-c4ccc([N+](=O)[O-])cc4)cs3)NC2=O)c1O has what GI50?
18.4 µM (inactive)

###

GI50 by entry:
system: DU-145; test: NCI tumour cell line growth inhibition, 48 h
Active and inactive are the calls of the source. Cut-off read from the data, not from the text of the source: active = GI50 up to about 1.1 µM and inactive = higher.

As a guide, the following entries are already answered.
INSERT INTO assay_data (molecule, data_value) VALUES
  ('CC1(C)CN(c2ccccc2)C(=O)C1OC(=O)[C@@]1(C)C[C@@H]2C=C[C@H]1C2 (some centres undefined)', '87.5 µM (inactive)'),
  ('CC1(C)CCC[C@](C)([C@H]2CC[C@]3(C)[C@@H]2[C@H](O)C[C@@H]2[C@@]4(C)CC[C@H](O)C(C)(C)[C@@H]4[C@H](O)C[C@]23C)O1', '15.8 µM (inactive)'),
  ('COc1cc(/C=C/C(=O)Oc2ccccc2)ccc1C(=O)O/C=C/c1ccccc1', '> 100 µM (inactive)');

Entry CCOC(=O)CCN1C(=O)c2c(NC(=O)C(=O)O)cccc2S1(=O)=O has what GI50?
> 100 µM (inactive)

Entry CCN(CC)c1ccc2cc(-c3csc(C)n3)c(=O)oc2c1 has what GI50?
> 100 µM (inactive)

Entry Cc1ccc(/N=N/C(=N\c2ccc(F)cc2)c2ccc(N(CCC#N)CCC#N)cc2)cc1 has what GI50?
> 100 µM (inactive)

Entry O=C(O)c1cc2ccccc2c(/N=N/c2ccc(S(=O)(=O)O)cc2)c1O has what GI50?
> 100 µM (inactive)

Entry O=C1O/C(=C(/Br)c2ccc(Cl)c(Cl)c2)c2ccccc21 has what GI50?
> 10 µM (inactive)

Entry Nn1c(CCCCCCCCc2nnc(COc3ccccc3)n2N)nnc1COc1ccccc1 has what GI50?
> 100 µM (inactive)

###

tested on: IGROV-1; assay: NCI tumour cell line growth inhibition, 48 h
Active and inactive are the calls of the source. Cut-off read from the data, not from the text of the source: active = GI50 up to about 1.1 µM and inactive = higher.
Measure: GI50

As a guide, the following entries are already answered.
INSERT INTO measurements (molecule, data_value) VALUES
  ('CCCCSN1C(=O)c2ccccc2C1=S', '> 100 µM (inactive)'),
  ('COC(=O)c1ccc(CCC2=CC(=O)C=CC2=O)cc1', '14.6 µM (inactive)'),
  ('Cn1cnc2c(NCc3ccccc3)nc(NCCO)nc21 [OLOMOUCINE]', '42.3 µM (inactive)'),
  ('COc1cc(C23OCC(Cc4cc5c(cc42)OCO5)C3CO)cc(OC)c1OC (stereo not drawn)', '2.44 µM (inactive)'),
  ('CCNc1nnc(-c2ccccc2Nc2ccccc2-c2nnc(NCC)s2)s1', '6.18 µM (inactive)'),
  ('Clc1ccccc1C(n1cc(Br)cn1)n1cc(Br)cn1', '> 10 µM (inactive)'),
  ('CN(C)C(=S)Oc1ccc2ccc(=O)oc2c1', '> 100 µM (inactive)'),
  ('Cc1ccc(Nc2c3c(c(C#N)c4nc5ccccc5n24)CCCC3)cc1', '28.2 µM (inactive)');

Entry C(=C\c1ccc2ccccc2c1Nc1ccccc1)/c1ccccc1 has what GI50?
31 µM (inactive)

Entry COc1ccc(CSCc2cc(OC)c(OC)c(OC)c2)cc1 has what GI50?
> 100 µM (inactive)

Entry CCOC(=O)CCN1C(=O)c2c(NC(=O)C(=O)O)cccc2S1(=O)=O has what GI50?
> 100 µM (inactive)

Entry CC(C)(C)c1cc(/C=C(\C#N)C2=NCCO2)cc(C(C)(C)C)c1O has what GI50?
6.58 µM (inactive)

Entry CCc1c(-c2ccc(OC)cc2)oc(OC)c(C)c1=O has what GI50?
> 100 µM (inactive)

Entry COC(=O)C1C(=O)CC2CCCCC21 (stereo not drawn) has what GI50?
> 100 µM (inactive)
